System: panel of human cell lines
experimentSummary: In vitro proliferation assay, Cell Titer Glo, two doubling times, 298 cell lines
Format: cell-based
cond: Homo sapiens, 769-P, kidney; read-out: ABS_IC50_VALUE
valueType: IC50 (nM)
Your answer is read as nM, so omit the unit and give the number.

Input: Under panel of human cell lines: IC50 value of O=c1[nH]ccc2cc(F)c(NS(=O)(=O)c3ccc(N4CC[C@@H](O)C4)s3)cc12 [LSN3213128] ?
Output: 1210

###

System: panel of human cell lines
experimentSummary: In vitro proliferation assay, Cell Titer Glo, two doubling times, 298 cell lines
Format: cell-based
cond: Homo sapiens, A253, A253, salivary gland; read-out: ABS_IC50_VALUE
pIC50: −log10 of the molar value.
valueType: pIC50

Input: Please give the measured pIC50 for this molecule: O=c1[nH]ccc2cc(F)c(NS(=O)(=O)c3ccc(N4CC[C@@H](O)C4)s3)cc12 [LSN3213128]
Output: < 4.70

Taken from paper PMC6193938.
